biological target: Jak2 (UniProt O60674); assay: phosphorylation enrichment, bacterial display (enrichment ratio); higher = better substrate or ligand; peptides without Tyr show the background;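 note: 11-residue human phosphosite peptides and single-mutation variants displayed on the E. coli surface, counted by deep sequencing, each peptide's frequency after selection divided by its frequency in the unselected input library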;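 note: frequency after pTyr selection over input frequency; kinase dosed for 20-30% of maximal phosphorylation in three min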
Sequence (O60674 whole entry, looked up): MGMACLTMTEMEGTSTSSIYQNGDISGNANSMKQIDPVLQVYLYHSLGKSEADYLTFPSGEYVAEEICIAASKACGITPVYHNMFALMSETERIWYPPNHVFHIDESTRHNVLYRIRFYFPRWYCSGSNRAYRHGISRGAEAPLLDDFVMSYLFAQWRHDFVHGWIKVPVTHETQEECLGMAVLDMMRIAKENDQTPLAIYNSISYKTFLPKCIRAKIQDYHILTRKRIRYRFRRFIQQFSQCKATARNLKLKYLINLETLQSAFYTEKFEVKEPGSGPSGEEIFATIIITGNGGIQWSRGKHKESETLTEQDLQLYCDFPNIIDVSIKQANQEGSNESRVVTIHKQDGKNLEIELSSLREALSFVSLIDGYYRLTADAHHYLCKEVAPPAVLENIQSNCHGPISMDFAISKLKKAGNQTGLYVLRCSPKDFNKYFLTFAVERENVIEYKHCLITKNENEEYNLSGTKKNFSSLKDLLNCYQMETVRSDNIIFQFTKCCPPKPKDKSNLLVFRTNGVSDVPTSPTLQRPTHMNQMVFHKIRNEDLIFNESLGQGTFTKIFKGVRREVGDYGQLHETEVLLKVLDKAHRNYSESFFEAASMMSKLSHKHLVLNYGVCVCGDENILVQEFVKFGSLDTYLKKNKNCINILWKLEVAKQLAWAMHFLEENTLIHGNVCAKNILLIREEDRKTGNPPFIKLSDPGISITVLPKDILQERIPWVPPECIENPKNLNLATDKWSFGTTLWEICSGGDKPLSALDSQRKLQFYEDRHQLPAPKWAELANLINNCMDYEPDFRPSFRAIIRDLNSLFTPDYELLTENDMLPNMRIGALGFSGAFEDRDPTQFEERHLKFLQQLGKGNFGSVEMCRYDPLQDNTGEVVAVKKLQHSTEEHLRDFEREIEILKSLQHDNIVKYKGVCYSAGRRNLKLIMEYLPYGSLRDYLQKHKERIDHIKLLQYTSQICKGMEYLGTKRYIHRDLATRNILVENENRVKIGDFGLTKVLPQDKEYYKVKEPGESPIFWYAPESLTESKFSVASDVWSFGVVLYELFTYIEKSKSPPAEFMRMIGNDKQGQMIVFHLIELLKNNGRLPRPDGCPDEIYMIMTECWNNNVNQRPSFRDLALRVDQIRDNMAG
Reported values of phosphorylation enrichment for individual entries
Quick one: just the number, no unit, thanks!

The recorded phosphorylation enrichment for QIGRKYKKVRF [F8_Y442_R437Q] is 1.62

The recorded phosphorylation enrichment for VSLEAYCKHKY [RXRA_Y403_A398V] is 1.05

***
The recorded phosphorylation enrichment for NAGDFYDLFGG [PTPN11_Y63_T59A_YF] is 0.971

---

test system: c-Src; assay: phosphorylation enrichment, bacterial display (enrichment ratio); higher = better substrate or ligand; peptides without Tyr show the background
# if value of phosphorylation enrichment reaches 0.8, tag true (1); if it stays below, tag false (0)

Task: Quick check, phosphorylation enrichment >= 0.8? KFEDVYVRICL [B3GALNT1_Y269_G271R]
Result: false (0)

Task: Quick check, phosphorylation enrichment >= 0.8? KANEFYPVVII [ADAMTS18_Y765_L769I_YF]
Result: false (0)

Now look at this entry.
Task: Quick check, phosphorylation enrichment >= 0.8? LLINKYGLSDH [SCP2_Y151_A155D]
Result: false (0)
